Measured Pb ODA (this manuscript) HepG2 cytoxicity values are reported for all entries that follow.
system: HepG2 cells; experiment: HepG2 cytotoxicity assay; details: HepG2 cytotoxicity listed with the Pb ODA data set (this manuscript)
Please reply with the bare figure in µM and do not write the unit itself.

Look over these answered cases.
| COMPOUND | ASSAY VALUE |
| --- | --- |
| Br.CC1(C)NC(N)=NC(=N)N1OCCSc1ccc(Cl)c(Cl)c1 [TCMDC-131704] | 0.001 |
| CC(Oc1ccc(NC(=O)c2cccs2)cc1)C(=O)c1ccc(Cl)cc1 (stereo not drawn) [TCMDC-125438] | 100.00 |
| Cc1[nH]c(C)c(-c2ccc(C(=O)c3ccc(Cl)cc3)cc2)c(=O)c1Br [TCMDC-137407] | 44.67 |

Lab note: next compound to report on.
// recorded Pb ODA (this manuscript) HepG2 cytoxicity for COc1ccc2nccc([C@@H](O)CN3CCC(NCc4cc5c(F)ccc(F)c5[nH]4)CC3)c2n1.CS(=O)(=O)O [TCMDC-140749] : 14.13

====

Measured log10 of Unified cytotox values are reported for all entries that follow.
tested on: HepG2 cells; experiment: HepG2 cytotoxicity assay; conditions: HepG2 cytotoxicity unified across screens; >25 set to 25.00
Values reflect log10 of reported Unified cytotox (µM).

| COMPOUND | TESTED TARGET | log10 of Unified cytotox |
| --- | --- | --- |
| CCn1c(-c2nonc2N)nc2c(-c3cccc(NC(=O)Nc4cccc(C#N)c4)c3)ncc(OCCCN)c21.O=C(O)C(F)(F)F [TCMDC-136195] | HepG2 cells | 1.39 |
| CN(C)CCCNc1nccc(N(C)c2ccc(NC(=O)Nc3cc(C(F)(F)F)ccc3F)cc2)n1.O=C(O)C(F)(F)F [TCMDC-141633] | HepG2 cells | 1.24 |
| Cc1cccc2nc(-c3ccc(-c4cccc(CNCCN5CCNCC5)c4)cc3)[nH]c12 [TCMDC-132867] | HepG2 cells | 1.13 |
| Cc1cccc2nc(-c3cccc(-c4cccc(CNCCN5CCNCC5)c4)c3)[nH]c12.O=C(O)C(F)(F)F [TCMDC-132873] | HepG2 cells | 0.89 |

// recorded log10 of Unified cytotox for Cl.N=C(NCCCc1ccccc1)c1cccc(C(=N)NCCCc2ccccc2)n1 [TCMDC-137453] : 1.11

// recorded log10 of Unified cytotox for COc1ccc(CCNC(C)Cc2ccc(C(=O)Nc3ccc(CC(C)NCCc4cccc(Cl)c4)cc3)cc2)cc1 (stereo not drawn) [TCMDC-139750] : 0.38

// recorded log10 of Unified cytotox for CS(=O)(=O)CCNCc1nc(-c2ccc3c(=O)[nH]cnc3c2)cs1 [TCMDC-138539] : 0.62

====

system: P. falciparum late stage (stages IV-V) gametocytes; assay: P. falciparum late stage gametocyte ATP depletion assay (Pf GC-ATP); settings: 1: YES; 0: NO
PARAMETER MEASURED: Is compound selective in assay? Pf GC-ATP active?

Look over these answered cases.
| MOLECULE | TESTED TARGET | ASSAY VALUE |
| --- | --- | --- |
| Nc1c(Cl)cc(C(O)CNCCCCCOCCCc2ccc(O)c3ncccc23)cc1Cl.O=C(O)/C=C/C(=O)O (centres unmarked) | P. falciparum late stage (stages IV-V) gametocytes | 1 (1: YES) |
| COCCn1c(-c2cccc(Cl)c2)nn(-c2ccc([N+](=O)[O-])cc2C#N)c1=S | P. falciparum late stage (stages IV-V) gametocytes | 1 (1: YES) |
| O=c1c(Br)ccccc1Br | P. falciparum late stage (stages IV-V) gametocytes | 1 (1: YES) |
| COc1ccc(CNCCCCCCNCc2ccc(OC)c3ccccc23)c2ccccc12.Cl | P. falciparum late stage (stages IV-V) gametocytes | 0 (0: NO) |
| Cn1nc(C(F)(F)F)c(-c2ccc(Br)cc2)c1NC(=O)Cc1ccccc1F | P. falciparum late stage (stages IV-V) gametocytes | 1 (1: YES) |
| c1cc(Nc2nc(-c3ccc(-c4csc(Nc5ccncc5)n4)cc3)cs2)ccn1 | P. falciparum late stage (stages IV-V) gametocytes | 1 (1: YES) |
| CC(=O)c1ccc2nc[nH]c(=O)c2c1 | P. falciparum late stage (stages IV-V) gametocytes | 0 (0: NO) |
| Fc1ccc(OC2CN(c3nccc(NCc4ccccc4Cl)n3)C2)cc1 | P. falciparum late stage (stages IV-V) gametocytes | 1 (1: YES) |

// recorded Is compound selective in assay? Pf GC-ATP active? for C=CCN(C(=O)c1ccc(Cl)c([N+](=O)[O-])c1)c1nc(-c2ccccc2)cs1 : 1 (1: YES)

// recorded Is compound selective in assay? Pf GC-ATP active? for CC(C)(C)c1ccc(-c2cc3c(ccc4nc(N)nc(N)c43)[nH]2)cc1 : 0 (0: NO)

// recorded Is compound selective in assay? Pf GC-ATP active? for O=C(Nc1nc(-c2ccccn2)cc2ccccc12)c1cccc(Cl)c1 : 1 (1: YES)

// recorded Is compound selective in assay? Pf GC-ATP active? for CC1CCCCN1CCCNc1nc(NCc2ccccc2)c2ccccc2n1 (centres unmarked) : 1 (1: YES)

// recorded Is compound selective in assay? Pf GC-ATP active? for C=CCOc1ccc2ccccc2c1CNCCCCCCNCc1c(OCC=C)ccc2ccccc12.CS(=O)(=O)O : 0 (0: NO)

// recorded Is compound selective in assay? Pf GC-ATP active? for CCc1c(CCNCCCCCCNC(C)Cc2ccc3c(c2CC)OCO3)ccc(OC)c1OC.Cl (centres unmarked) : 0 (0: NO)

// recorded Is compound selective in assay? Pf GC-ATP active? for CCCCCCCN1CC[C@@H](CCCc2ccnc3ccc(OCCN4CCNCC4)cc23)[C@@H](CC)C1.Cl : 1 (1: YES)
